assay: Phase I first-in-human study: safety, tolerability and PK of single and multiple doses in healthy volunteers; type: in vivo; settings: human, plasma, oral; estimated from AUC0-∞ at single dose of 125 mg in phase 1 study Part 3; 0.7 mg/kg/day; read-out: AUC0-24, human dose 50 mg
Metric: AUC(0-t) (ng·h/mL)
Respond numerically; units are ng·h/mL and should not be typed.

Input: Assign AUC(0-t) to the following record: CN1C(=O)[C@@H](NC(=O)c2n[nH]c(Cc3ccccc3)n2)COc2ccc(C#CC(C)(C)O)cc21 [Compound I]
Output: 16000

###

assay: 6-month repeat-dose toxicity study in rats; type: in vivo; details: rat, in vivo, po, 1000 mg/kg/day
Metric: AUC(0-t) (µg·h/mL)
Give the quantity in µg·h/mL, number only.

Input: Please give measured AUC(0-t) of the following entry: CN1C(=O)[C@@H](NC(=O)c2n[nH]c(Cc3ccccc3)n2)COc2ccc(C#CC(C)(C)O)cc21 [Compound I]
Output: 1080

###

assay: Phase I first-in-human study: safety, tolerability and PK of single and multiple doses in healthy volunteers; assay type: in vivo; details: human, plasma, oral; estimated from AUC0-∞ at single dose of 125 mg in phase 1 study Part 3; 1.8 mg/kg/day; read-out: AUC0-24, human dose 125 mg
Metric: AUC(0-t) (ng·h/mL)
Quick reminder: number only, in ng·h/mL, skip the unit.

Input: Return AUC(0-t) (reported value) for this compound: CN1C(=O)[C@@H](NC(=O)c2n[nH]c(Cc3ccccc3)n2)COc2ccc(C#CC(C)(C)O)cc21 [Compound I]
Output: 40100

###

test: Repeat-dose toxicity studies in monkeys (up to 9-month); assay type: in vivo; conditions: monkey, in vivo, po; plasma toxicokinetics on Day 273, 150 mg/kg/day; read-out: AUC0-24 at monkey NOAEL
Metric: AUC(0-t)
Include the unit after the number when you answer.

Input: Answer with the recorded AUC(0-t) for the compound listed here: CN1C(=O)[C@@H](NC(=O)c2n[nH]c(Cc3ccccc3)n2)COc2ccc(C#CC(C)(C)O)cc21 [Compound I]
Output: 278 µg·h/mL

###

experiment: Rabbit embryofetal development study; assay type: in vivo; conditions: female, rabbit, in vivo, po; plasma toxicokinetics on Gestational Day 19, 120 mg/kg/day; read-out: AUC0-24 at rabbit EFD NOEL
Metric: AUC(0-t) (µg·h/mL)
Numbers only; they are read as µg·h/mL.

Input: Indicate its recorded AUC(0-t); the compound in question is CN1C(=O)[C@@H](NC(=O)c2n[nH]c(Cc3ccccc3)n2)COc2ccc(C#CC(C)(C)O)cc21
Output: 464

###

assay: Repeat-dose toxicity studies in monkeys (up to 9-month); type: in vivo; details: monkey, in vivo
Metric: NOAEL at 9 months (mg/kg)
Express the result in mg/kg but write the number alone.

Input: Fill in NOAEL at 9 months for record CN1C(=O)[C@@H](NC(=O)c2n[nH]c(Cc3ccccc3)n2)COc2ccc(C#CC(C)(C)O)cc21 [Compound I]
Output: 150

###

test: Rat embryofetal development study; type: in vivo; details: female, rat, in vivo, po; plasma toxicokinetics on Gestational Day 17, 1000 mg/kg/day; read-out: AUC0-24 at rat EFD NOEL
Metric: AUC(0-t) (µg·h/mL)
# output: bare number, implied unit µg·h/mL

Input: Complete the entry with AUC(0-t) for CN1C(=O)[C@@H](NC(=O)c2n[nH]c(Cc3ccccc3)n2)COc2ccc(C#CC(C)(C)O)cc21
Output: 1120

All figures here come from patent US20250000872A1.
